Numbers sourced from patent US20250152729A1.

experimental system: T1, human SEMA4A expressed on cells (UniProt ID Q9H3S1, isoform 1) (human, UniProt Q9H3S1 33-761)
T1 sequence: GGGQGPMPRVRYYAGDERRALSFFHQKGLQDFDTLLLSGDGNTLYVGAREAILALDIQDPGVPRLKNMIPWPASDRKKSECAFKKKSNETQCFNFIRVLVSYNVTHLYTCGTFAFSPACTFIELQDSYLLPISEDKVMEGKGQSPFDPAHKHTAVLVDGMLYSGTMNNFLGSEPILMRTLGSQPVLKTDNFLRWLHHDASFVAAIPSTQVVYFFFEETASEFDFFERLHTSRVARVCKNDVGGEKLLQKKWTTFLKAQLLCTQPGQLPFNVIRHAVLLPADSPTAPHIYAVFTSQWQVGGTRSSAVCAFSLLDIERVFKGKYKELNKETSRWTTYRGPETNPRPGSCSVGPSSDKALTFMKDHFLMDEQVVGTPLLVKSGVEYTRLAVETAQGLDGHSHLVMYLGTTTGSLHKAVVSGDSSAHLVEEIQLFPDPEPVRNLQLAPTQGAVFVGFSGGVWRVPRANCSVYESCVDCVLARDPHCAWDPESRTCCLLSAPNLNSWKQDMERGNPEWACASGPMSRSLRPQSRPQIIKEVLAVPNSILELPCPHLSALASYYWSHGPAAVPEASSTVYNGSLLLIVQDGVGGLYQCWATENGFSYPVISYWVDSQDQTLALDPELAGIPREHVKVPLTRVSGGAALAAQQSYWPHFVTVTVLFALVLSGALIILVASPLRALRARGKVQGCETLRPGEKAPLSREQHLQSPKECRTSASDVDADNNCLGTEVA
test name: cell-based or functional assay
value type: Average NCI-H929 IC50 [pM], cell kill (pM)
// note: answer is a bare numeric in pM

What value of Average NCI-H929 IC50 [pM], cell kill has been recorded for this entry: mouse 5E3 as human Alya IgG1 conjugated to McMMAF (antibody, V domains shown, McMMAF on the engineered cysteines 239iCys and S442C (EU numbering) of the heavy constant region, Antibody-drug conjugate; human IgG1 Alya constant, drug-to-antibody ratio of four; also called Mouse 5E3-McMMAF) VH: QVQLQQPGAELVMPGASVKMSCKASGYTFTDYWMHWVKQRPGQGLEWIGAIDTSDSYTSYNQKFKGKATLTVDESSSTAYMQLSSLTSEDSAVYYCARDYGNFYYYAMDYWGQGTSVTVSS VL: QAVVTQESALTTSPGETVTLTCRSSTGAVTTSNYANWVQEKPDHLFTGLIGGTNNRAPGVPARFSGSLIGDKAALTITGAQTEDEAIYFCALWYSNHWVFGGGTKLTVL
5.1
